# measurementTarget: Trx system (thioredoxin/thioredoxin reductase) (Homo sapiens)
# Sequence (Q16881 151-649 limits assumed): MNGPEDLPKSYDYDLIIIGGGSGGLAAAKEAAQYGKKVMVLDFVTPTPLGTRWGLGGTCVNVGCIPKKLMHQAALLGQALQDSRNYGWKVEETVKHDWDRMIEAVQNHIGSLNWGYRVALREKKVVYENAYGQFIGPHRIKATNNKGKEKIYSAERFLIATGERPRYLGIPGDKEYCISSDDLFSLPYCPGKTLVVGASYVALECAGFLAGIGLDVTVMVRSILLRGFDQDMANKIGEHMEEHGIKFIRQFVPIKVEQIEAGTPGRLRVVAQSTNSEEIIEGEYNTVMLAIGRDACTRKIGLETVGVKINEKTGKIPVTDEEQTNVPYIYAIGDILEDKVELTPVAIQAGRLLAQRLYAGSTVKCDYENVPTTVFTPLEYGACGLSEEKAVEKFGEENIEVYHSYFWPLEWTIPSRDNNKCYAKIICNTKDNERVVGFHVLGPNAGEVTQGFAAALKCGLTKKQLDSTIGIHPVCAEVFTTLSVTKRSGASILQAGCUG
# experimentalDetails: Thioredoxin/thioredoxin reductase insulin reduction assay
# Assay type: biochemical
# measurementSetup: compound at 500 μM; read-out: Inhib. (%) Trx Syst. at 500 μM
reportedEndpoint: inhibition at 500 µM (%)

compound	dataValue
Cc1ccc(S(=O)(=O)Nc2ccc(C#N)cc2NS(=O)(=O)c2ccc(C)cc2)cc1 [(21b)]	58.4
Cc1ccc(S(=O)(=O)Nc2ccc(NC(=O)Cn3ccc(=O)[nH]c3=O)cc2NS(=O)(=O)c2ccc(C)cc2)cc1	70.7
CCOC(=O)CN(CC(=O)OCC)Cc1ccc(NS(=O)(=O)c2ccc(C)cc2)c(NS(=O)(=O)c2ccc(C)cc2)c1	58.1
COC(=O)c1ccc(NS(=O)(=O)c2ccc(Cl)cc2)c(NS(=O)(=O)c2ccc(Cl)cc2)c1	62.3
